All figures here come from ChEMBL document CHEMBL3433997.

- experimentalTarget: Glucose transporter (Leishmania mexicana)
- assayNotes: ST_JUDE_LEISH: Cytotoxicity at 2uM final concentration against transgenic Leishmania Mexicana promastigotes LmGT2 that are glucose transport deficient and complemented with the L. Mexicana glucose transporter 2. Activity is measured by DNA content using SYBR green in vitro
- Assay type: functional
reportedProperty: inhibition
# output: numeric value plus its unit

O=C(Nc1cccc(-c2cccc(F)c2)c1)C1CCN(Cc2ccc(O)cc2)CC1 ... 2.19%
CNCCNCc1ccc(-c2ccc(-c3nc4cccc(C)c4[nH]3)s2)cc1 ... 3.92%
N=C(Cc1ccc(Cl)cc1)NCCN1CCCCCC1 ... 6.19%
Cc1cccc(NC(=O)Nc2ccc(I)c(OCCN(C)C)c2)c1C ... 10.1%
Cc1ccc(C2(C)CN(CCCOc3cccc(-c4ccc(C(=O)NC(C)C)cc4)c3)CCO2)cc1 (stereo not given) ... 0.85%

// for each compound in input: emit inhibition
1. CC1(C)NC(N)=NC(=N)N1OCCCOc1c(Cl)cc(Cl)cc1Cl
2. O=C(Nc1ccc(OCc2ccccc2)cc1)c1nc2ccccc2nc1Cl
3. COc1ccc(NC(=O)Nc2cccc(-c3ccncc3)c2)cc1N1CCN(C)CC1
4. CC(C)(C)c1ccc(NC(=O)c2ccc(CN3CCCN(Cc4ccsc4)CC3)cc2)cc1
5. COc1ccc(Cl)cc1NC(=O)CN(C)C(=O)c1cnn(-c2ccccc2)n1
6. CC(C)(C)c1ccc(S(=O)(=O)Nc2ccccc2N2CCOCC2)cc1

1: -2.41%; 2: 1.34%; 3: 7.22%; 4: 11.9%; 5: 3.11%; 6: 0.2%
